Attribution: patent US20230124862A1

- Test system: Haemophilus influenzae
- experiment: Broth microdilution MIC, Haemophilus influenzae clinical isolates
- Format: cell-based
- cond: H. influenzae MMX 5495
We begin with a simple list: items and their reported MIC.
property.name: MIC (µg/mL)

mol	experimental.system	quantitative.readout
CC1(C)S[C@@H]2[C@H](NC(=O)[C@H](N)c3ccccc3)C(=O)N2[C@H]1C(=O)O	Haemophilus influenzae	0.25
CO/N=C(\C(=O)N[C@@H]1C(=O)N2C(C(=O)O)=C(COC(N)=O)CS[C@H]12)c1ccco1	Haemophilus influenzae	2
CC[C@H]1OC(=O)[C@H](C)[C@@H](O[C@H]2C[C@@](C)(OC)[C@@H](O)[C@H](C)O2)[C@H](C)[C@@H](O[C@@H]2O[C@H](C)C[C@H](N(C)C)[C@H]2O)[C@](C)(O)C[C@@H](C)CN(C)[C@H](C)[C@@H](O)[C@]1(C)O	Haemophilus influenzae	0.5
C[C@H]1COc2c(N3CCN(C)CC3)c(F)cc3c(=O)c(C(=O)O)cn1c23	Haemophilus influenzae	0.015
